- Tested on: PXR homodimer (NR concentration 270 nM)
- experimentNotes: PBM binding z-score (relative to random genomic background probes); higher = stronger binding; sequences stand for … in GC…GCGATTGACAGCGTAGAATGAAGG
Mark Criterion met for reported PBM binding z-score of 0.02 or greater; mark Criterion not met for anything smaller.

// known answers, use as guide
TCTAGCAGGCCAGAGGATCACTCAAGAGGTACGG: Criterion not met
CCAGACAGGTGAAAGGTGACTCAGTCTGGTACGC: Criterion not met
ATCGAAAGGTCGAAGGTGGGTATACCCACCCGAA: Criterion not met

[in] Quick check, PBM binding z-score >= 0.02? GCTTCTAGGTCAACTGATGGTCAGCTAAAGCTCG
[out] Criterion not met

[in] Quick check, PBM binding z-score >= 0.02? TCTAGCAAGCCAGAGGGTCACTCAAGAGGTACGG
[out] Criterion not met

[in] Quick check, PBM binding z-score >= 0.02? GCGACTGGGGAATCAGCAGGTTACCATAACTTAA
[out] Criterion not met
